study target: T1, DS-Cav1 RSV F (respiratory syncytial virus)
T1 construct: also called DC-VCav1
protocol notes: ELISA on DS-Cav1 RSV F
measure name: EC50 (µg/mL)
Numbers only; they are read as µg/mL.

Look over these answered cases.
INSERT INTO assay_data (binder, recorded_result) VALUES
  ('MPH12 VH-FRGL-D62E / MPH12 VL-D25E (antibody, V domains shown, MPH12 variant; VH and VL only) VH: QVQLVESGGGLVKPGGSLRLSCAASGFTFSGFYMKWIRQAPGKGLEWVSSISASGSYTNYAESVEGRFTISRDNAKNSLYLQMNSLRAEDTAVYYCARGDSYCGASACHGEFFHKWGQGTLVTVSS VL: QSVLTQPPSVSGAPGQRVTISCTGSESNIGADFDVHWYQQLPGTAPKLLIYGNINRPSGVPDRFSGSRSGTSAFLAITRLQAEDEADYYCQSYDRSLHYVFGAGTKVTVL', 0.0397),
  ('MPH12 VH / MPH12 VL-S26A (antibody, V domains shown, MPH12 variant; VH and VL only) VH: QVQLVESGGGLVKPGGSLRLSCVASGFTFSGFYMKWIRQAPGKGLEWVSSISASGSYTNYADSVEGRFTVSRDNAKNSLFLLMSSLRAEDTAVYYCARGDSYCGASACHGEFFHKWGQGTLVTVSS VL: QSVLTQPPSVSGAPGQRVTISCTGSDANIGADFDVHWYQQLPGTAPKLLIYGNINRPSGVPDRFSGSRSGTSAFLAITRLQAEDEADYYCQSYDRSLHYVFGAGTKVTVL', 0.0508),
  ('MPH12 VH-FRGL / MPH12 VL-D25E (antibody, V domains shown, MPH12 variant; VH and VL only) VH: QVQLVESGGGLVKPGGSLRLSCAASGFTFSGFYMKWIRQAPGKGLEWVSSISASGSYTNYADSVEGRFTISRDNAKNSLYLQMNSLRAEDTAVYYCARGDSYCGASACHGEFFHKWGQGTLVTVSS VL: QSVLTQPPSVSGAPGQRVTISCTGSESNIGADFDVHWYQQLPGTAPKLLIYGNINRPSGVPDRFSGSRSGTSAFLAITRLQAEDEADYYCQSYDRSLHYVFGAGTKVTVL', 0.034),
  ('MPH12 VH / MPH12 VL-FRGL (antibody, V domains shown, MPH12 variant; VH and VL only) VH: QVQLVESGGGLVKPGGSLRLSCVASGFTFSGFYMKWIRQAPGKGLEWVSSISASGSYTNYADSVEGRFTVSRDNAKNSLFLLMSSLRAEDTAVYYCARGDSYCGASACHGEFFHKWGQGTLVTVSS VL: QSVLTQPPSVSGAPGQRVTISCTGSDSNIGADFDVHWYQQLPGTAPKLLIYGNINRPSGVPDRFSGSKSGTSASLAITGLQAEDEADYYCQSYDRSLHYVFGTGTKVTVL', 0.0358);

Now for a further binder.
Dear colleague, I am looking for the recorded EC50 of the following binder: MPH12-v16 (VH-FRGL-S63A/VL-D25S) (antibody, V domains shown, also called MPH12 VH-FRGL-S63A / MPH12 VL-D25S) VH: QVQLVESGGGLVKPGGSLRLSCAASGFTFSGFYMKWIRQAPGKGLEWVSSISASGSYTNYADAVEGRFTISRDNAKNSLYLQMNSLRAEDTAVYYCARGDSYCGASACHGEFFHKWGQGTLVTVSS VL: QSVLTQPPSVSGAPGQRVTISCTGSSSNIGADFDVHWYQQLPGTAPKLLIYGNINRPSGVPDRFSGSRSGTSAFLAITRLQAEDEADYYCQSYDRSLHYVFGAGTKVTVL
0.0156

Cited source for all entries: patent US20260028391A1
